B1: CPEB3 Ribozyme (parent)
chain: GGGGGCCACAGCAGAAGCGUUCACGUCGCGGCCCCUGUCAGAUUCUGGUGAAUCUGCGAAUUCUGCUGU

Variants of: B1
ASSAY REMARKS: self-cleavage, relative activity (ratio to wild type); higher = more cleavage; co-transcriptional
Recorded self-cleavage values for a group of variants are listed next.

INSERT INTO assay_data (variant_string, result) VALUES
  ('G25U U53A', 0.166),
  ('G19U A51U', 0.476),
  ('G30U U53C', 0.276);

Would you kindly look at the next entry?
Name the reported self-cleavage value associated with the variant C24G G56A
0.22
